Target: human HSD-1 expressed in CHO cells (Homo sapiens)
quantity: pKi
Recall that pKi is obtained by taking minus log10 of the concentration measured in molar.

Lab request: please report pKi under test system human HSD-1 expressed in CHO cells (Homo sapiens) for Cn1c(-c2ccc(C(N)=O)cc2F)nnc1C(C)(C)Oc1c(F)cc(Cl)cc1F [SPI-62]
7.90

---

Molecular target: HSD-1 (Homo sapiens, UniProt P28845)
quantity: IC50
The number alone won't do; follow it with the unit.

Param readout = IC50; param system = HSD-1 (Homo sapiens, UniProt P28845); param query = Cn1c(-c2ccc(C(N)=O)cc2F)nnc1C(C)(C)Oc1c(F)cc(Cl)cc1F [SPI-62] ; response: value
23.4 pM

---

Assay: Human plasma pharmacokinetics of SPI-62
Format: in vivo
Settings: human, plasma, oral, multiple doses 0.2 to 50 mg; read-out: Cmax means
quantity: Cmax

Form field: reported Cmax of Cn1c(-c2ccc(C(N)=O)cc2F)nnc1C(C)(C)Oc1c(F)cc(Cl)cc1F [SPI-62]
1 to 835 ng/mL

---

Molecular target: purified human HSD-1 (Homo sapiens, UniProt P28845)
Sequence (P28845 whole entry): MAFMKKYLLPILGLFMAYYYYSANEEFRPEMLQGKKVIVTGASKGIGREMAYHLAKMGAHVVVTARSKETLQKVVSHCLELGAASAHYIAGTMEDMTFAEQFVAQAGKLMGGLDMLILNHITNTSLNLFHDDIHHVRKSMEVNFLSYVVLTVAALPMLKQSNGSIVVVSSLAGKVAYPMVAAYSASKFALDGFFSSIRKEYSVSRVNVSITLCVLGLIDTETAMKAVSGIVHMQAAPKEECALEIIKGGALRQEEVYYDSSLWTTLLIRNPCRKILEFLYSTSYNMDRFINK
quantity: IC50 (nM)
Write down the numeric answer in nM and omit the unit.

Sample Cn1c(-c2ccc(C(N)=O)cc2F)nnc1C(C)(C)Oc1c(F)cc(Cl)cc1F — what was its IC50?
17

---

Assay: Human plasma pharmacokinetics of SPI-62
Type: in vivo
Conditions: human, plasma, oral, 0.2 mg, 0.2 mg daily for 14 days; last dosing day; read-out: mean maximum plasma drug concentration (Cmax)
quantity: Cmax

Would you mind telling me what Cmax value was observed for Cn1c(-c2ccc(C(N)=O)cc2F)nnc1C(C)(C)Oc1c(F)cc(Cl)cc1F ?
< 1 ng/mL

---

Target: HSD-1 (Homo sapiens)
Test: Surface plasmon resonance binding kinetics in presence of NADPH (residence time)
Conditions: 300 μM NADPH; reciprocal of the dissociation rate constant; read-out: Residence Time (converted)
# residence time listing for each entry below
Respond numerically; units are min and should not be typed.

CC(C)(O)c1cccn2c(C3(c4ccc(Cl)cc4)CC3)nnc12 : 2.03
CC(C)(C(=O)N[C@H]1C2CC3CC1C[C@@](C(N)=O)(C3)C2)N1CCN(c2ccc(C(F)(F)F)cn2)CC1 : 43.5
CC1CN(CC(=O)NC2C3CC4CC2CC(C(N)=O)(C4)C3)S(=O)(=O)N(c2c(Cl)cc(C(F)(F)F)cc2Cl)C1 (stereo not drawn) : 8.63

// query residence time value for entry F[C@H]1C[C@@](c2ccc(Cl)cc2)(c2nnc(C3CC3)n2C2CC2)C1
3.25

Quick one: residence time for Cn1c(-c2ccc(C(N)=O)cc2F)nnc1C(C)(C)Oc1c(F)cc(Cl)cc1F ?
8.92

Which residence time value is on record for CC(C)(C)c1c(C(=O)NC2C3CC4CC(C3)CC2C4)cnn1-c1ccc(C(=O)O)cc1 (stereo not drawn) ?
3.45

---

Experiment: Human plasma pharmacokinetics of SPI-62
Type: in vivo
Conditions: human, plasma, oral, 1 mg, single dose 1 mg; read-out: mean Cmax
quantity: Cmax

Sample Cn1c(-c2ccc(C(N)=O)cc2F)nnc1C(C)(C)Oc1c(F)cc(Cl)cc1F [SPI-62] — what was its Cmax?
< 0.05 ng/mL

---

Target: purified human HSD-1 (Homo sapiens, UniProt P28845)
quantity: Ki (nM)
Lab book: enter the figure in nM, no units written.

Please provide the recorded Ki for Cn1c(-c2ccc(C(N)=O)cc2F)nnc1C(C)(C)Oc1c(F)cc(Cl)cc1F [SPI-62] , tested on purified human HSD-1 (Homo sapiens, UniProt P28845).
5.3
